- Test system: MARIMO;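 note: after 48 h exposure read by CellTiter-Glo luminescence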
- test description: cell viability relative to vehicle control; higher = less cytotoxic
- measurement context: 10 µM; SRSF2 genotype: SRSF2 wt/wt
Counter-ions that a name gives are not always drawn.
Provide the recorded cell viability for the entries that follow.
Response body: numeric value in %, unit text excluded.

# return recorded cell viability for entry Cc1cccc(C)c1NC(=O)c1cc(S(N)(=O)=O)c(Cl)cc1O [Xipamide] 113

# return recorded cell viability for entry CC1(C)CCCC2(C)C1CCC1(C)OC(=O)CC12 (stereo not given) [Sclareolide (Norambreinolide)] 98.7

# return recorded cell viability for entry O=c1[nH]c(=O)n([C@H]2C[C@H](O)[C@@H](CO)O2)cc1F 96.5

# return recorded cell viability for entry O=C1CCc2ccc(O)cc2N1 [7-Hydroxy-3,4-dihydrocarbostyril] 112

# return recorded cell viability for entry Cc1nc(=O)c2cc(CN(C)c3ccc(C(=O)N[C@@H](CCC(=O)O)C(=O)O)s3)ccc2[nH]1 105

# return recorded cell viability for entry COc1cc(/C=C/C(=O)O[C@H]2[C@H](O)[C@@H](CO)O[C@@]2(CO)O[C@H]2O[C@H](CO)[C@@H](O)[C@H](O)[C@H]2O)ccc1O 99.2

# return recorded cell viability for entry O=c1c2cc(O)c(O)cc2oc2cc(O)c([C@@H]3O[C@H](CO)[C@@H](O)[C@H](O)[C@H]3O)c(O)c12 104

# return recorded cell viability for entry CCNC(=O)CCC/C=C\C[C@@H]1[C@@H](/C=C/[C@@H](O)CCc2ccccc2)[C@H](O)C[C@@H]1O 98.3

# return recorded cell viability for entry COc1cc(CO)cc(OC)c1O [4-Hydroxy-3,5-dimethoxybenzyl alcohol] 107

# return recorded cell viability for entry CCN(CC)CCCC(C)Nc1c2ccc(Cl)cc2nc2ccc(OC)cc12 (stereo not given) [Quinacrine Dihydrochloride Dihydrate] 2.15

# return recorded cell viability for entry COc1ccc(-c2ccc3c(N4CCOCC4)nc(N4C[C@@H](C)O[C@@H](C)C4)nc3n2)cc1CO 50.6

# return recorded cell viability for entry C[C@H]1[C@H](OC(=O)CCC(=O)O)O[C@@H]2O[C@@]3(C)CC[C@H]4[C@H](C)CC[C@@H]1[C@@]24OO3 [Artesunate] 37.8

# return recorded cell viability for entry CC(C)n1nccc1-c1ncccc1COc1cccc(O)c1C=O 103

# return recorded cell viability for entry CC1(C)[C@@H](O[C@H]2O[C@H](C(=O)O)[C@@H](O)[C@H](O)[C@H]2O[C@@H]2O[C@H](C(=O)O)[C@@H](O)[C@H](O)[C@H]2O)CC[C@]2(C)[C@H]3C(=O)C=C4[C@@H]5C[C@@](C)(C(=O)O)CC[C@]5(C)CC[C@@]4(C)[C@]3(C)CC[C@@H]12 [Ammonium Glycyrrhizinate (AMGZ)] 102

# return recorded cell viability for entry COCCCC/C(=N\OCCN)c1ccc(C(F)(F)F)cc1 [Fluvoxamine maleate] 91.5

# return recorded cell viability for entry CN(C/C=C/C#CC(C)(C)C)Cc1cccc2ccccc12 [Terbinafine] 108

# return recorded cell viability for entry COc1cc2c(cc1OC)[C@@H]1Cc3ccc(OC)c(OC)c3CN1CC2 [Tetrahydropalmatine hydrochloride] 93.7

# return recorded cell viability for entry O=C1C[C@@H]2[C@@H](CO)[C@H](O)C[C@@H]2O1 110

# return recorded cell viability for entry CC(=O)OCC1=C(C(=O)O)N2C(=O)C(NC(=O)CSC(=NC(C)C)NC(C)C)C2SC1 (stereo not given) 110

# return recorded cell viability for entry CN(C)CCN1C(=O)c2cccc3cc(N)cc(c23)C1=O [Amonafide] 10.7
